- Tested on: T-47D breast
- Test protocol: NCI-60 one-dose screen, 48 h (100 = growth as untreated, 0 = no growth, -100 = all killed)
- Setup conditions: 10 µM unless noted
The panel holds about 83,000 compounds, 20% with a hit somewhere; the sample as a whole holds those more often. Calls of active or inactive are those of the source. Rule for the calls: active = growth percent below 10; inactive = the rest.
Examples of compounds with documented growth follow.

[
  {
    "Compound": "CCN(CC)c1ccc(N2C(=O)/C(=C/c3cccs3)SC2=S)cc1",
    "growth": "83% (inactive)"
  },
  {
    "Compound": "N=c1sc(Cc2cc(Cl)ccc2Cl)cn1CC(=O)c1ccccc1",
    "growth": "38.3% (inactive)"
  },
  {
    "Compound": "COc1cc(C2Cc3ncccc3-c3[nH]c(=O)c4cccnc4c32)cc(OC)c1OC (stereo not given)",
    "growth": "45.6% (inactive)"
  },
  {
    "Compound": "CCCC(O)Cn1ncc(C(=O)OCC)c1NC(=O)NCc1cccc(F)c1 (stereo not given)",
    "growth": "88.2% (inactive)"
  },
  {
    "Compound": "Cc1ccc(-c2csc(NC(=O)N3CCN(c4cc5c(cc4F)c(=O)c(C(=O)O)cn5C4CC4)CC3)n2)cc1",
    "growth": "11.5% (inactive)"
  },
  {
    "Compound": "N=C(N)SCc1cccc2c(CSC(=N)N)cccc12",
    "growth": "96.2% (inactive)"
  },
  {
    "Compound": "COc1cc(OC)cc(C2C(C#N)=C(N)Oc3c2ccc2ccc(O)cc32)c1 (stereo not given)",
    "growth": "58.4% (inactive)"
  },
  {
    "Compound": "CSCCC(NC(=O)c1ccccc1)C(=O)N/N=C1\\S/C(=C/c2ccc(Cl)cc2)C(=O)N1C (stereo not given)",
    "growth": "82.9% (inactive)"
  },
  {
    "Compound": "Oc1c(Cl)cc(Cl)c2ccc(Cn3cc(-c4cccc(C(F)(F)F)c4)nn3)nc12",
    "growth": "58.9% (inactive)"
  },
  {
    "Compound": "O=C(/C=C/C12c3ccccc3C(c3ccccc31)C1C(=O)NC(=O)C12)c1ccccn1 (stereo not given)",
    "growth": "9.45% (active)"
  }
]

----------
- Tested on: OVCAR-3 ovarian
- Test protocol: NCI-60 one-dose screen, 48 h
- Setup conditions: 10 µM unless noted
About 83,000 compounds went through this panel and 20% of them were active in at least one assay; those are over-represented in the sample as a whole. Calls of active or inactive are those of the source. How the source made its calls: active means growth percent below 10; inactive means the rest.
Labels: TRUE for active, FALSE for inactive

[
  {
    "Chem smiles": "O=C(CBr)CN1C(=O)c2ccccc2C1=O",
    "Tgt": "OVCAR-3 ovarian",
    "Category label": "FALSE"
  },
  {
    "Chem smiles": "O=C1NC(=O)c2c1c1c3ccccc3[nH]c1c1oc3ccc(F)cc3c21",
    "Tgt": "OVCAR-3 ovarian",
    "Category label": "FALSE"
  },
  {
    "Chem smiles": "C=CCn1c(SCC(=O)Nc2ccc(C(=O)/C=C/c3ccc(OC)cc3)cc2)nnc1-c1ccccc1",
    "Tgt": "OVCAR-3 ovarian",
    "Category label": "FALSE"
  },
  {
    "Chem smiles": "CCCCCCCCCCCCCCCCCCOc1ccccc1CC(=O)NCC[N+]1(C)CCOCC1",
    "Tgt": "OVCAR-3 ovarian",
    "Category label": "FALSE"
  },
  {
    "Chem smiles": "CCOC(=O)C/C(=N\\Nc1cc(=O)[nH]c2ccc(Cl)cc12)C(=O)OCC",
    "Tgt": "OVCAR-3 ovarian",
    "Category label": "FALSE"
  },
  {
    "Chem smiles": "Cc1nc2sc(C(=O)Nc3ccccc3)c(N)c2cc1C(=O)/C=C/c1ccccc1",
    "Tgt": "OVCAR-3 ovarian",
    "Category label": "TRUE"
  },
  {
    "Chem smiles": "CCN(CC)c1ccc(/C=C\\c2cc(C)c3cc(C)ccc3n2)cc1",
    "Tgt": "OVCAR-3 ovarian",
    "Category label": "FALSE"
  },
  {
    "Chem smiles": "CN(C)c1ccc(/C=C/C(=O)c2ccc(Nc3nc(Nc4ccc(F)cc4)nc(Nc4ccc(Cl)cc4)n3)cc2)cc1",
    "Tgt": "OVCAR-3 ovarian",
    "Category label": "FALSE"
  },
  {
    "Chem smiles": "Cn1cc(-c2csc(-c3cn(C)c4ccc(Br)cc34)n2)c2cnccc21",
    "Tgt": "OVCAR-3 ovarian",
    "Category label": "TRUE"
  },
  {
    "Chem smiles": "CC(C)CCSc1nc(Nc2ccccc2)c(C#N)c(-c2ccccc2)n1",
    "Tgt": "OVCAR-3 ovarian",
    "Category label": "FALSE"
  }
]
